Cited source for all entries: the nanobody polyreactivity screen of Harvey et al. (2022)

# procedureDetails: yeast display, Sf9 membrane polyspecificity reagent, FACS + sequencing; frameworks hold sequencing errors
endpoint: polyreactivity (PSR sort gate)

Take a look at these entries with their results.
Short answer for QVQLVESGGGLVQAGGSLRLSRASSGVISYRNAMGWYRKAPGKERQLVASITSSGGRTYYADSVKGRFTISRDYATNSVFLQMNSLKPEDTAVYYCADDNWYKKLKRPSAYDYWGQGTQVTVSS : polyreactivity (PSR sort gate) was high polyreactivity

Sure, the documented polyreactivity (PSR sort gate) for QVQLVESGGGLVQAGGSLRLSCAASGSIIKWNAMGWDRKAPGQEREFVASITRSGGSTYYADSVKGRITISRDNAKNTVYLQMNSRKPEDTAVFYCARSYGWYRWAGYDYWGKGTQVTVSS is high polyreactivity

Per the records, this sequence ( QVQLVESGGGLVQAGGSLRLSCAASGSTFQPYAMGWYIQAPGKEREFVATISGSAGSTYYADSVKGRFKISRDNAKNTVYLQMNSLKPEDTAVYYCNADSGWFGYDYWGQGTQVTVSS ) has polyreactivity (PSR sort gate) equal to low polyreactivity

Record QVQLVESGGGLVQARGSLRLSCAATGSTLSFYAMVWYRQAPGKERELVAAISYSTGTTYYADSVKGRFTISRDNAKNTVYLQMNSLKPEDTAVYYCNAVGTGGYSSEYGYWGQGTQVTVSS . Reported polyreactivity (PSR sort gate): high polyreactivity

The recorded polyreactivity (PSR sort gate) for QVQLVESGGGLVQAGGSLRLSCAASGSTFVDKAMGWYRQAPGKERELVATISSGGSTYYADSVKGRFTISRDNAKNTVYLQMNSLKPEDTAVYYCNADGNKRYPWVDYWGQGTQVTVSS is low polyreactivity

More entries:
# polyreactivity (PSR sort gate) (sequence: QVQLVESGGGLVQAGGSLRLSCDASGRPFRRNAMGWYRQAPGKERELVAAITLSGGRTYADSLKGRFTISRDNAKNTVYLQMNSLKPEDTAVYYCAASSPGFSYWYNGYEYWGEGTQVTVSS ) is high polyreactivity

Notebook: QVQLVESGGGLVQAGGSLRISCAASGTFGSNAMGWYRQAPGKERELVAAINSGGTTKYADSVKGRFTISRDNAKNTVYLQMNSLKPEDTAVYYCNAREGVFRYPVAHDYWGQGTQVTVSS , polyreactivity (PSR sort gate) read as low polyreactivity

Value of polyreactivity (PSR sort gate) reported for the sequence QVHLVESGGGLVQAGGSLRLSCAASGFNFLIYAMGWYRQAPGKERELVAAITLRGSGTYYADSVKGRFTISRDNAKNTVYLQMNSLKPEDTAVYDCAAGTARRTYDYWGQGTQVTVSS is low polyreactivity
